Value source: patent EP3305781A1

assay_target: UniProt P00734
assay_protocol: Biochemical inhibition assay, fluorogenic substrate FSR-AMC
pIC50: −log10 of the molar value.
value_type: pIC50

Summary for this compound, Cc1nn(-c2ccc(C#N)cc2)c(C)c1NC(=O)COC(=O)Cn1c(C)cc2ccccc21 [compound 6] : pIC50 is < 3.70

Summary for this compound, Cc1nn(-c2ccccc2)c(C)c1NC(=O)COC(=O)Cc1c[nH]c2ccccc12 [compound 12] : pIC50 is < 3.70

###

assay_target: KLK6 (Homo sapiens)
assay_protocol: Biochemical inhibition assay, fluorogenic substrate FSR-AMC
protocol_conditions: read-out: KLK6 IC50; KLK6 5 nM (produced in insect cells); 30 min incubation with inhibitor; FSR-AMC 20 µM; Tris pH 7.5
Entries and their measured log10(IC50) follow.
Answers are given as log10 of IC50 in µM.

The examples below pair each entry with its known result.
>  <compound>
Cc1ccc(NC(=O)COC(=O)Cc2c(C)[nH]c3ccccc23)cc1 [compound 74]

>  <log10(IC50)>
0.66

$$$$
>  <compound>
Cc1nn(-c2ccccc2)c(C)c1NC(=O)COC(=O)Cc1ccccn1 [compound 58]

>  <log10(IC50)>
0.95

$$$$
>  <compound>
Cc1nn(-c2ccccc2)c(C)c1NC(=O)COC(=O)Cc1ccccc1C(F)(F)F [compound 63]

>  <log10(IC50)>
0.37

$$$$
>  <compound>
Cc1nn(-c2ccccc2)c(C)c1NC(=O)COC(=O)Cc1ccccc1OCc1ccccc1 [compound 69]

>  <log10(IC50)>
1.76

$$$$

Summary for this compound, Cc1ccccc1CC(=O)OCC(=O)Nc1c(C)nn(-c2ccccc2)c1C [compound 50] : log10(IC50) is 0.33

Summary for this compound, Cc1ccccc1NC(=O)COC(=O)Cc1c(C)[nH]c2ccccc12 [compound 78] : log10(IC50) is 0.67

Summary for this compound, Cc1nn(-c2ccccc2)c(C)c1N(C)C(=O)COC(=O)Cc1c(C)[nH]c2ccccc12 [compound 88] : log10(IC50) is 0.46

Summary for this compound, Cc1nn(-c2ccccc2)c(C)c1NC(=O)COC(=O)Cc1ccc(C#N)cc1 [compound 46] : log10(IC50) is 1.47

Summary for this compound, Cc1nn(-c2ccccc2)c(C)c1NC(=O)COC(=O)Cc1ccsc1Cl [compound 66] : log10(IC50) is 0.87

Summary for this compound, Cc1cc2ccccc2n1CC(=O)OCC(=O)Nc1ccc(N2CCOCC2)cc1 [compound 35] : log10(IC50) is 0.15

Summary for this compound, Cc1nn(-c2ccccc2)c(C)c1NC(=O)COC(=O)Cc1cccc(C#N)c1 [compound 56] : log10(IC50) is 1.21

Summary for this compound, Cc1nn(-c2ccccc2)c(C)c1NC(=O)COC(=O)Cn1ccc2c(F)cccc21 [compound 25] : log10(IC50) is 1.49

Summary for this compound, COc1cccc(CC(=O)OCC(=O)Nc2c(C)nn(-c3ccccc3)c2C)c1 [compound 53] : log10(IC50) is 1.48

Summary for this compound, Cc1cccc(NC(=O)COC(=O)Cc2c(C)[nH]c3ccccc23)c1 [compound 75] : log10(IC50) is 0.73

Summary for this compound, Cc1nn(-c2ccc(NCCCCO)cc2)c(C)c1NC(=O)COC(=O)Cn1c(C)cc2ccccc21 [compound 19] : log10(IC50) is -0.58

Summary for this compound, Cc1nn(-c2ccccc2)c(C)c1NC(=O)COC(=O)Cc1ccccc1I [compound 51] : log10(IC50) is -0.58

Summary for this compound, Cc1[nH]c2ccccc2c1CC(=O)OCC(=O)Nc1ccccc1Cl [compound 73] : log10(IC50) is 0.16

Summary for this compound, COc1ccccc1CC(=O)OCC(=O)Nc1c(C)nn(-c2ccccc2)c1C [compound 54] : log10(IC50) is 0.69

###

assay_target: KLK6 (Homo sapiens)
assay_protocol: Biochemical inhibition assay, fluorogenic substrate FSR-AMC
value_type: IC50 (nM)
Give just the number in nM; leave the unit off.

The examples below pair each entry with its known result.
>  <smiles_data>
Cc1nn(C)c(C)c1NC(=O)COC(=O)Cn1c(C)cc2ccccc21

>  <value_unit>
nM

>  <IC50>
1250

$$$$
>  <smiles_data>
Cc1nn(-c2ccccc2[N+](=O)[O-])c(C)c1NC(=O)COC(=O)Cn1c(C)cc2ccccc21

>  <value_unit>
nM

>  <IC50>
172

$$$$
>  <smiles_data>
Cc1nn(-c2ccc(C(F)(F)F)cc2)c(C)c1NC(=O)COC(=O)Cn1c(C)cc2ccccc21

>  <value_unit>
nM

>  <IC50>
2890

$$$$

Now look at this one.
Summary for this molecule, `Cc1cccc(-n2nc(C)c(NC(=O)COC(=O)Cn3c(C)cc4ccccc43)c2C)c1` : IC50 is 371

###

Entries and their measured IC50 follow.
assay_target: UniProt:P00742
assay_protocol: Biochemical inhibition assay, fluorogenic substrate FSR-AMC

The examples below pair each entry with its known result.
>  <smiles_data>
COc1ccc(Cn2nc(C)c(NC(=O)COC(=O)Cn3c(C)cc4ccccc43)c2C)cc1

>  <IC50>
> 200 µM

$$$$
>  <smiles_data>
Cc1nn(-c2ccccc2[N+](=O)[O-])c(C)c1NC(=O)COC(=O)Cn1c(C)cc2ccccc21

>  <IC50>
50 µM

$$$$
>  <smiles_data>
Cc1nn(-c2ccc(C#N)cc2)c(C)c1NC(=O)COC(=O)Cn1c(C)cc2ccccc21

>  <IC50>
> 200 µM

$$$$
>  <smiles_data>
Cc1nn(-c2ccccc2)c(C)c1NC(=O)COC(=O)Cc1c[nH]c2ccccc12

>  <IC50>
135 µM

$$$$

Summary for this molecule, `Cc1cccc(-n2nc(C)c(NC(=O)COC(=O)Cn3c(C)cc4ccccc43)c2C)c1` : IC50 is > 200 µM

Summary for this molecule, `Cc1nn(C)c(C)c1NC(=O)COC(=O)Cn1c(C)cc2ccccc21` : IC50 is > 200 µM

Summary for this molecule, `Cc1nn(-c2ccccc2)c(C)c1NC(=O)COC(=O)Cn1ccc2ccccc21` : IC50 is > 200 µM

Summary for this molecule, `Cc1nn(-c2ccccc2)c(C)c1NC(=O)COC(=O)Cn1c(C)cc2ccccc21` : IC50 is > 200 µM

###

assay_target: Thrombin (Homo sapiens, UniProt P00734)
assay_protocol: Biochemical inhibition assay, fluorogenic substrate FSR-AMC
protocol_conditions: read-out: Thrombin IC50; Thrombin 9.8·10^-5 NIH unit/mL; 30 min incubation with inhibitor; FSR-AMC 20 µM; Tris pH 7.5
value_type: IC50

The examples below pair each entry with its known result.
>  <smiles_data>
Cc1[nH]c2ccccc2c1CC(=O)OCC(=O)NC1CCCC1

>  <measured_result>
> 200 µM

$$$$
>  <smiles_data>
Cc1nn(-c2ccccc2)c(C)c1NC(=O)COC(=O)Cc1ccc(C#N)cc1

>  <measured_result>
> 50 µM

$$$$
>  <smiles_data>
Cc1cc(C)n(CC(=O)OCC(=O)Nc2c(C)nn(-c3ccccc3)c2C)n1

>  <measured_result>
> 200 µM

$$$$
>  <smiles_data>
Cc1nn(-c2ccc(NCCCCO)cc2)c(C)c1NC(=O)COC(=O)Cn1c(C)cc2ccccc21

>  <measured_result>
> 200 µM

$$$$
>  <smiles_data>
Cc1nn(-c2ccc([N+](=O)[O-])cc2)c(C)c1NC(=O)COC(=O)Cn1c(C(F)(F)F)cc2ccccc21

>  <measured_result>
> 200 µM

$$$$
>  <smiles_data>
Cc1nn(-c2ccccc2)c(C)c1NC(=O)COC(=O)Cc1ccccc1

>  <measured_result>
> 50 µM

$$$$
>  <smiles_data>
Cc1[nH]c2ccccc2c1CC(=O)OCC(=O)Nc1cncnc1

>  <measured_result>
66.1 µM

$$$$
>  <smiles_data>
Cc1nn(-c2ccccc2)c(C)c1N(C)C(=O)COC(=O)Cc1c(C)[nH]c2ccccc12

>  <measured_result>
14.1 µM

$$$$

Now look at this one.
Summary for this molecule, `Cc1ccccc1NC(=O)COC(=O)Cn1c(C)cc2ccccc21` : IC50 is > 50 µM

###

assay_target: Factor Xa (Homo sapiens, UniProt P00742)
Sequence (P00742 235-488 limits assumed): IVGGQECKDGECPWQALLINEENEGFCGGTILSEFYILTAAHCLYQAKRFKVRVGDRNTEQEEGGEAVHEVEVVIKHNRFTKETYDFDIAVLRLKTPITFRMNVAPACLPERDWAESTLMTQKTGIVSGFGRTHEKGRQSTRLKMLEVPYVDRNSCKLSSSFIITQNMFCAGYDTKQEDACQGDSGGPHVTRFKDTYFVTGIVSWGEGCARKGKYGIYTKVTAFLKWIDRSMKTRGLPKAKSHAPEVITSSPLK
Sequence (P00742 41-179 partner limits assumed): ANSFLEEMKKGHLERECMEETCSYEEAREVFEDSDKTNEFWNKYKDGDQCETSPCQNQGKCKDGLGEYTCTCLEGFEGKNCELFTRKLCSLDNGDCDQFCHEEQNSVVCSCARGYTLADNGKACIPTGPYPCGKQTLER
assay_protocol: Biochemical inhibition assay, fluorogenic substrate FSR-AMC
pIC50: −log10 of the molar value.
value_type: pIC50

The examples below pair each entry with its known result.
>  <compound>
Cc1ccc(-n2nc(C)c(NC(=O)COC(=O)Cc3c[nH]c4ccccc34)c2C)cc1 [compound 13]

>  <pIC50>
3.79

$$$$
>  <compound>
Cc1ccc(-n2nc(C)c(NC(=O)COC(=O)Cn3c(C)cc4ccccc43)c2C)cc1 [compound 9]

>  <pIC50>
< 3.70

$$$$
>  <compound>
Cc1nn(-c2ccccc2)c(C)c1NC(=O)COC(=O)Cn1cc(C)c2ccccc21 [compound 14]

>  <pIC50>
< 3.70

$$$$
>  <compound>
Cc1nn(-c2ccccc2C(F)(F)F)c(C)c1NC(=O)COC(=O)Cn1c(C)cc2ccccc21 [compound 8]

>  <pIC50>
3.86

$$$$
>  <compound>
Cc1nn(-c2ccc(C(F)(F)F)cc2)c(C)c1NC(=O)COC(=O)Cn1c(C)cc2ccccc21 [compound 4]

>  <pIC50>
< 3.70

$$$$

Summary for this compound, Cc1nn(-c2ccc([N+](=O)[O-])cc2)c(C)c1NC(=O)COC(=O)Cn1c(C)cc2ccccc21 [compound 10] : pIC50 is < 3.70
